testProtocol: ESI positive response factor (isotope-corrected peak area per molar concentration) in SFC/ESI/HRMS (area units per M); higher = higher ionization efficiency;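 note: standards in acetonitrile/water run in triplicate on a zwitterionic HILIC column, CO2–methanol gradient containing 20 mmol/L ammonium acetate, postcolumn makeup flow, Orbitrap full-scan detection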
testParameters: 0.875 µM
measurementLabel: ESI positive response factor
Answer with a bare number; do not write a unit.

Previously resolved entries follow.
{"compound": "N#CN=C(N)N [Dicyandiamide]", "testResult": "6.05e+15"}
{"compound": "CCCCC(=O)N(Cc1ccc(-c2ccccc2-c2nn[nH]n2)cc1)C(C(=O)O)C(C)C (stereo not drawn)", "testResult": "6.04e+16"}
{"compound": "CC(=O)NCCCCC(N)C(=O)O (stereo not drawn)", "testResult": "9.29e+15"}
{"compound": "CN(C)CCOC(c1ccccc1)c1ccccc1 [Diphenhydramine]", "testResult": "2.25e+17"}
{"compound": "COc1ccc(O)c(C(C)(C)C)c1 [Butylated hydroxyanisole]", "testResult": "3.01e+15"}

// query For the compound shown here, `COC(=O)NS(=O)(=O)c1ccc(N)cc1` , give the reported ESI positive response factor.
// result 1.49e+16

// query For the compound shown here, CC(=O)NCCCS(=O)(=O)O [Acamprosate] , give the reported ESI positive response factor.
// result 3.18e+15

// query For the compound shown here, `CN=C(NC#N)NCCSCc1nc[nH]c1C` , give the reported ESI positive response factor.
// result 8.86e+16

---

testProtocol: ESI positive response factor (isotope-corrected peak area per molar concentration) in SFC/ESI/HRMS (area units per M); higher = higher ionization efficiency
testParameters: 0.0875 µM
Each entry below carries its reported ESI positive response factor.

Previously resolved entries follow.
{"molecule": "CCOP(=S)(OCC)Oc1cc(C)nc(C(C)C)n1", "testResult": "3.71e+16"}
{"molecule": "CCN[C@H]1C[C@H](C)S(=O)(=O)c2sc(S(N)(=O)=O)cc21 [Dorzolamide]", "testResult": "9.06e+15"}
{"molecule": "CCOc1nc2cccc(C(=O)O)c2n1Cc1ccc(-c2ccccc2-c2nnn[nH]2)cc1", "testResult": "8.12e+16"}
{"molecule": "CCOC(=O)CN1CCCC1=O [Ethyl 2-oxo-1-pyrrolidineacetate]", "testResult": "9.42e+16"}
{"molecule": "COc1ccc(O)c(C(C)(C)C)c1 [Butylated hydroxyanisole]", "testResult": "3.78e+15"}

// query For the molecule shown here, `C[C@]12CC[C@H]3[C@@H](CCC4=CC(=O)CC[C@@]43C)[C@@H]1CC[C@@H]2O` , give the reported ESI positive response factor.
// result 2.22e+17

// query For the molecule shown here, `CC(=O)OCC[N+](C)(C)C` , give the reported ESI positive response factor.
// result 2.4e+17

---

testProtocol: ESI positive response factor (isotope-corrected peak area per molar concentration) in SFC/ESI/HRMS (area units per M); higher = higher ionization efficiency
testParameters: 0.0244 µM
Each entry below carries its reported ESI positive response factor.
Answer with a bare number; do not write a unit.

Previously resolved entries follow.
{"compound": "CON(C)C(=O)Nc1ccc(Cl)c(Cl)c1 [Linuron]", "testResult": "3.86e+16"}
{"compound": "CON(C)C(=O)Nc1ccc(Br)cc1 [Metobromuron]", "testResult": "2.29e+17"}
{"compound": "N=C(N=C(N)N)N1CCOCC1 [Moroxydine]", "testResult": "1.7e+17"}
{"compound": "CN(C)C(=N)N=C(N)N [Metformin]", "testResult": "4.62e+16"}
{"compound": "CC1(C)CCC(Cc2ccc(Cl)cc2)C1(O)Cn1cncn1 (configuration not stated) [Metconazol]", "testResult": "3.52e+17"}
{"compound": "CC(C)(CO)[C@@H](O)C(=O)NCCCO [Panthenol]", "testResult": "6.23e+16"}
{"compound": "C[NH2+]C[C@H](O)CO [3-Methylamino-1,2-propanediol]", "testResult": "4.4e+16"}
{"compound": "O=C1NCCCN1 [N,N?-Trimethyleneurea]", "testResult": "3.89e+16"}

// query For the compound shown here, NCCCC[C@H](N[C@@H](CCc1ccccc1)C(=O)O)C(=O)N1CCC[C@H]1C(=O)O [Lisinopril] , give the reported ESI positive response factor.
// result 1.4e+16

// query For the compound shown here, OCC[C@@H]1CCCC[NH2+]1 [2-Piperidineethanol] , give the reported ESI positive response factor.
// result 1.22e+17

// query For the compound shown here, Cc1cc(=O)oc2cc(O)ccc12 [4-Methylumbelliferone] , give the reported ESI positive response factor.
// result 8.88e+16

// query For the compound shown here, N=c1nc(N2CCCCC2)cc(N)n1O [Minoxidil] , give the reported ESI positive response factor.
// result 1.78e+17

// query For the compound shown here, CN(C)C(=O)Nc1ccc(Cl)cc1 [Monuron] , give the reported ESI positive response factor.
// result 2.85e+16

// query For the compound shown here, CSc1nnc(C(C)(C)C)c(=O)n1N [Metribuzin] , give the reported ESI positive response factor.
// result 2.15e+17

// query For the compound shown here, CCc1cccc(C)c1N(C(=O)CCl)C(C)COC (configuration not stated) [Metolachlor] , give the reported ESI positive response factor.
// result 5.34e+17

// query For the compound shown here, Nc1nc(N)nc(N)n1 [Melamine] , give the reported ESI positive response factor.
// result 1.84e+16

// query For the compound shown here, Cc1cccc(C)c1N(Cn1cccn1)C(=O)CCl [Metazachlor] , give the reported ESI positive response factor.
// result 3.32e+17

---

testProtocol: ESI positive response factor (isotope-corrected peak area per molar concentration) in SFC/ESI/HRMS (area units per M); higher = higher ionization efficiency
testParameters: 0.35 µM
Each entry below carries its reported ESI positive response factor.
Answer with a bare number; do not write a unit.

Previously resolved entries follow.
{"compound": "Cn1c(N)c(NC=O)c(=O)n(C)c1=O [6-Amino-1,3dimethyl-5-(formylamino)uracil]", "measurementLabel": "ESI positive response factor", "testResult": "2.17e+15"}
{"compound": "CC(CCl)OP(=O)(OC(C)CCl)OC(C)CCl (centres undefined) [TCPP]", "measurementLabel": "ESI positive response factor", "testResult": "7.91e+17"}
{"compound": "NC(N)=NC(N)=NCCc1ccccc1 [Phenformin]", "measurementLabel": "ESI positive response factor", "testResult": "3.4e+17"}
{"compound": "CN=C(NC#N)NCCSCc1nc[nH]c1C [Cimetidine]", "measurementLabel": "ESI positive response factor", "testResult": "9.32e+16"}
{"compound": "CCC[C@@H]1O[C@@H]2C[C@H]3[C@@H]4CCC5=CC(=O)C=C[C@]5(C)[C@H]4[C@@H](O)C[C@]3(C)[C@]2(C(=O)CO)O1 [Budesonid]", "measurementLabel": "ESI positive response factor", "testResult": "1.25e+17"}
{"compound": "CCNC(=O)[C@H](C)OC(=O)Nc1ccccc1 [Carbetamid]", "measurementLabel": "ESI positive response factor", "testResult": "6.45e+16"}
{"compound": "CC(=O)Nc1ccc(O)cc1 [Acetaminophen]", "measurementLabel": "ESI positive response factor", "testResult": "4.29e+16"}
{"compound": "C#C[C@]1(O)CC[C@H]2[C@@H]3CCc4cc(O)ccc4[C@H]3CC[C@@]21C [17-Alpha-Ethinylestradiol]", "measurementLabel": "ESI positive response factor", "testResult": "1.71e+16"}

// query For the compound shown here, CNC(=O)CSP(=S)(OC)OC [Dimethoate] , give the reported ESI positive response factor.
// result 5.56e+16

---

Each entry below carries its reported ESI positive response factor.
testProtocol: ESI positive response factor (isotope-corrected peak area per molar concentration) in SFC/ESI/HRMS (area units per M); higher = higher ionization efficiency
testParameters: 0.0875 µM
Answer with a bare number; do not write a unit.

Previously resolved entries follow.
{"compound": "CCNC(=O)[C@H](C)OC(=O)Nc1ccccc1", "testResult": "6.85e+16"}
{"compound": "OCCN1C[C@H](O)[C@@H](O)[C@H](O)[C@H]1CO", "testResult": "1e+16"}

Okay, now this compound:
// query For the compound shown here, CNC(=O)CSP(=S)(OC)OC [Dimethoate] , give the reported ESI positive response factor.
// result 5.84e+16

---

testProtocol: ESI positive response factor (isotope-corrected peak area per molar concentration) in SFC/ESI/HRMS (area units per M); higher = higher ionization efficiency
testParameters: 0.061 µM
Each entry below carries its reported ESI positive response factor.
Answer with a bare number; do not write a unit.

Previously resolved entries follow.
{"molecule": "CON(C)C(=O)Nc1ccc(Br)cc1 [Metobromuron]", "ESI positive response factor": "2.07e+17"}
{"molecule": "CCc1cccc(C)c1N(C(=O)CCl)C(C)COC (stereo unspecified) [Metolachlor]", "ESI positive response factor": "5.13e+17"}
{"molecule": "CN(C)C(=O)Nc1ccc(Cl)cc1 [Monuron]", "ESI positive response factor": "3.31e+16"}

// query For the molecule shown here, OCC[C@@H]1CCCC[NH2+]1 [2-Piperidineethanol] , give the reported ESI positive response factor.
// result 9.77e+16

// query For the molecule shown here, Cc1cccc(C)c1N(Cn1cccn1)C(=O)CCl [Metazachlor] , give the reported ESI positive response factor.
// result 3.05e+17

// query For the molecule shown here, CCSC(=O)N1CCCCCC1 [Molinate] , give the reported ESI positive response factor.
// result 1.56e+16
